Where these numbers come from: patent US8471041B2

assay: physchem; conditions: water
RECORDED ENDPOINT: solubility

**Query** Could you share which solubility value was measured for O=C(CBr)N1CC([N+](=O)[O-])([N+](=O)[O-])C1 ?
**Result** 300 to 1300 µg/mL
